target or system: IKZF2 (Helios) (Homo sapiens, UniProt Q9UKS7)
Construct: Leu-Asp junction (codons ctcgac before the linker); mScarlet (behind P2A) (C, cleaved yes); expressed in transfected cells
protocol: IKZF2 reporter degradation assay (HEK 293T IKZF2-mNeonGreen reporter cell line)
Type: cell-based
test context: HEK 293T IKZF2-mNeonGreen reporter, 24 hours incubation
measure name: DC50

O=C1CCC(N2Cc3cc(OC4CCC[C@@H]4N4CC(c5cncnc5)C4)ccc3C2=O)C(=O)N1 (mixture of isomers) [Compound 197-B]: > 30 µM

Items follow; give DC50 for each.
1. O=C1CCC(N2Cc3cc(O[C@@H]4CCCC[C@@H]4N4CC(c5ccncc5F)C4)ccc3C2=O)C(=O)N1 (single isomer, unassigned) [Compound 104-B]
2. O=C1CCC(N2Cc3cc(O[C@@H]4CCCC[C@H]4N4CC(c5ncc(C6CC6)cn5)C4)ccc3C2=O)C(=O)N1 (single isomer, unassigned) [Compound 132-B]

Reply |
["> 30 µM", "> 30 µM"]

====

target or system: human E3 ligase component cereblon (CRBN) (Homo sapiens)
protocol: Cereblon (CRBN) target engagement, NanoBRET TE Intracellular E3 Ligase Assay in transfected HEK-293T cells
test context: read-out: CRBN Binding EC50
pEC50: −log10 of the molar value.
measure name: pEC50

# example entries with known answers
O=C1NC(=O)C2(N3Cc4cc(O[C@@H]5CCCC[C@@H]5N5CC(c6ccncc6)C5)ccc4C3=O)CC1C2 (racemic) [Compound 159-B]: < 5.00
O=C1NC(=O)C2(N3Cc4cc(OC5CCC[C@@H]5N5CC(c6ncc(Cl)cn6)C5)ccc4C3=O)CC1C2 (mixture of isomers) [Compound 157-B]: < 5.00

Ask | Specify pEC50 for O=C1CCC(N2Cc3cc(O[C@H]4CCCC[C@@H]4N4CC(C5CCN(S(=O)(=O)C6CCC6)CC5)C4)ccc3C2=O)C(=O)N1 (stereo partly drawn) [Compound 57-A] and stop.
Reply | 8.52

====

target or system: IKZF2 (Helios) (Homo sapiens)
Construct: Leu-Asp junction (codons ctcgac before the linker); mScarlet (behind P2A) (C, cleaved yes); expressed in transfected cells
protocol: IKZF2 reporter degradation assay (HEK 293T IKZF2-mNeonGreen reporter cell line)
Type: cell-based
test context: HEK 293T IKZF2-mNeonGreen reporter, 24 hours incubation
Consider the following compounds; for each one, report its DC50.

# example entries with known answers
O=C1CCC(N2Cc3cc(O[C@H]4CCCC4N4CC(c5ccnc6ccccc56)C4)ccc3C2=O)C(=O)N1 (mixture of isomers) [Compound 195-B]: > 30 µM
O=C1CCC(N2Cc3cc(O[C@H]4CCCC[C@H]4N4CC(c5cncc(Cl)c5)C4)ccc3C2=O)C(=O)N1 (single isomer, unassigned) [Compound 114-B]: > 30 µM

Could you now consider this next compound?
Ask | Specify DC50 for O=C1CCC(N2Cc3cc(O[C@H]4CCCC[C@H]4N4CC(c5ccc(Cl)cn5)C4)ccc3C2=O)C(=O)N1 (single isomer, unassigned) [Compound 97-B] and stop.
Reply | > 30 µM

====

target or system: IKZF2 (Helios) (Homo sapiens, UniProt Q96SW2+Q9UKS7)
Construct: Leu-Asp junction (codons ctcgac before the linker); mScarlet (behind P2A) (C, cleaved yes); expressed in transfected cells
Sequence (Q9UKS7 whole entry): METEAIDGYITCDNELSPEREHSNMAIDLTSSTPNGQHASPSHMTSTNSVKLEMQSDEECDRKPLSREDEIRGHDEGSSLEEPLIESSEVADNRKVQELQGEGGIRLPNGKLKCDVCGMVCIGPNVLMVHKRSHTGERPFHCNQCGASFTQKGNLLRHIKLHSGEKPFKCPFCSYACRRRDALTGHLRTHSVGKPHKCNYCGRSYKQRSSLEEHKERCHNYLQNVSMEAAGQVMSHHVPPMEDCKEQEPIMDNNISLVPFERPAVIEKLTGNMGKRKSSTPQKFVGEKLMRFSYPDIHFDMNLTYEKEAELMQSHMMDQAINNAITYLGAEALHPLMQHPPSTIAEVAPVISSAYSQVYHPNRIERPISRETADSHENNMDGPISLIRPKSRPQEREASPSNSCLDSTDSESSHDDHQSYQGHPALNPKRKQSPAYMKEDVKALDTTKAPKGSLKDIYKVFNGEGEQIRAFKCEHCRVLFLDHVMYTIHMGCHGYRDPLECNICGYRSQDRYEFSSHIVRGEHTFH
Sequence (Q96SW2 whole entry): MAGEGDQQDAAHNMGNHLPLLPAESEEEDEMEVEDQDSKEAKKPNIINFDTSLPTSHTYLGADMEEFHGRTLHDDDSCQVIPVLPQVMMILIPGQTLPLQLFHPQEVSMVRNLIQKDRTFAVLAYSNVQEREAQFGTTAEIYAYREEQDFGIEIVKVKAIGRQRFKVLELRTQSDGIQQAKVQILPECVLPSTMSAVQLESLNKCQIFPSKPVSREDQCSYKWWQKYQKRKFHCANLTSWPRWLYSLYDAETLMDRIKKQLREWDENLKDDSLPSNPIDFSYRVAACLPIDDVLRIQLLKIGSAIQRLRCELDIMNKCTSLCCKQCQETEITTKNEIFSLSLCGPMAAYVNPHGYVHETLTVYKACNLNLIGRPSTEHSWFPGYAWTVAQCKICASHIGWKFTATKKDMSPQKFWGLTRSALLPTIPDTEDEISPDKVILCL
Sequence (Q16531 whole entry partner): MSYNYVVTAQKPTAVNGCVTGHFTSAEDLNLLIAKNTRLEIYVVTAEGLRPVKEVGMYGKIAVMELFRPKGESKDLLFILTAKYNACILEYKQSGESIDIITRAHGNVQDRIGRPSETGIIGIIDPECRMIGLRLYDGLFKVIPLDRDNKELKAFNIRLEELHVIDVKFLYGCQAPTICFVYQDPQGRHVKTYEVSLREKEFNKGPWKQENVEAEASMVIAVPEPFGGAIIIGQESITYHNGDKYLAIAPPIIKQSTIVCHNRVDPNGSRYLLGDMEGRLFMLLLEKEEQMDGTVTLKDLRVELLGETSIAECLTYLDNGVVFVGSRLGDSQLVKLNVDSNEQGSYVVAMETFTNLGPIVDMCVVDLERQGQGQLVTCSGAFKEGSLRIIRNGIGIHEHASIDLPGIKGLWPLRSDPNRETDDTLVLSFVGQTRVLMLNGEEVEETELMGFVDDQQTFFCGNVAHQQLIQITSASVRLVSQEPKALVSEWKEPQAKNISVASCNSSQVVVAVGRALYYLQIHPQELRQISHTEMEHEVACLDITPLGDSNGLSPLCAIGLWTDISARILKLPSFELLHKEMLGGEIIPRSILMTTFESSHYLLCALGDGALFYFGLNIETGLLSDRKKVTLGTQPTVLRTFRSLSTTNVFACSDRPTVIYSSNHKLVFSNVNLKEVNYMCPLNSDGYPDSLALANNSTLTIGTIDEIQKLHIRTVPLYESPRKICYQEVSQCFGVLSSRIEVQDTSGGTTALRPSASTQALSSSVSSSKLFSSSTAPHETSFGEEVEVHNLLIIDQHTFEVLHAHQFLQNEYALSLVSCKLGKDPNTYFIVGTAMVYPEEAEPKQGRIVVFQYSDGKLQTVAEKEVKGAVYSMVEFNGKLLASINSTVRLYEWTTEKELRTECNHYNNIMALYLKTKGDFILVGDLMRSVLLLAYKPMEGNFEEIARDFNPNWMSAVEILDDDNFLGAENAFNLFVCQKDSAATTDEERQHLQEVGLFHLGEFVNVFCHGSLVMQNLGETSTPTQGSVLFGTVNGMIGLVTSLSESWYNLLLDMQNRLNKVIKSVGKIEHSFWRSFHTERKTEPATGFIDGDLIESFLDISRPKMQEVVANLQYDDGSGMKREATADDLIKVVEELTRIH
protocol: IKZF2 reporter degradation assay (HEK 293T IKZF2-mNeonGreen reporter cell line)
Assay type: cell-based
test context: HEK-293T, 24 h, @ 1 μM, HEK 293T IKZF2-mNeonGreen reporter, 24 hours incubation
Consider the following molecules; for each one, report its inhibition at 1 µM.
Numbers only, in %.

# example entries with known answers
O=C1CCC(N2Cc3cc(O[C@@H]4CCCC[C@@H]4N4CC(c5ncncc5Cl)C4)ccc3C2=O)C(=O)N1 (mixture of isomers) [Compound 139-B]: 62.4
CC1(C(=O)N2CCC(C3CN([C@H]4CCCC[C@@H]4Oc4ccc5c(c4)CN(C4CCC(=O)NC4=O)C5=O)C3)CC2)CCC1 (stereo partly drawn) [Compound 25-A]: 84.4

Could you now consider this next molecule?
Ask | Specify inhibition at 1 µM for COc1ccc(C2CN([C@H]3CCCC3Oc3ccc4c(c3)CN(C3CCC(=O)NC3=O)C4=O)C2)cn1 (mixture of isomers) [Compound 201-B] and stop.
Reply | 62.7

====

target or system: IKZF2 (Helios) (Homo sapiens, UniProt Q96SW2+Q9UKS7)
Construct: Leu-Asp junction (codons ctcgac before the linker); mScarlet (behind P2A) (C, cleaved yes); expressed in transfected cells
protocol: IKZF2 reporter degradation assay (HEK 293T IKZF2-mNeonGreen reporter cell line)
Format: cell-based
test context: HEK-293T, 24 h, @ 1 μM, HEK 293T IKZF2-mNeonGreen reporter, 24 hours incubation
Description: Polycistronic plasmids were constructed for the mammalian expression of fluorescent reporter fusions of human transcription factors IKZF1 (Ikaros), IKZF2 (Helios), and IKZF3 (Aiolos). […] The DNA sequences of the open reading frames are as follows: […] The IKZF1/IKZF2/IKZF3 degradation assays were carried out by harvesting the HEK 293T reporter cell lines and resuspending the cells in media formulated for reduced background fluorescence (FluoroBrite; Thermo Fisher). […]
measure name: inhibition at 1 µM (%)
Answers are plain numbers, in %.

Cc1cnccc1C1CN([C@H]2CCCC[C@@H]2Oc2ccc3c(c2)CN(C2CCC(=O)NC2=O)C3=O)C1 (single isomer, unassigned): 67.1
O=C1CCC(N2Cc3cc(O[C@H]4CCCC[C@@H]4N4CC(c5ncncc5Cl)C4)ccc3C2=O)C(=O)N1 (single isomer, unassigned): 81.7
O=C1CCC(N2Cc3cc(O[C@H]4CCCC[C@@H]4N4CC(c5ncc(Cl)cn5)C4)ccc3C2=O)C(=O)N1 (single isomer, unassigned): 76
O=C1CCC(N2Cc3cc(O[C@H]4CCCC[C@@H]4N4CC(C5CCOC5)C4)ccc3C2=O)C(=O)N1 (stereo partly shown): 67.4
N#CC1(C(=O)N2CCC(C3CN([C@H]4CCCC[C@@H]4Oc4ccc5c(c4)CN(C4CCC(=O)NC4=O)C5=O)C3)CC2)CCC1 (stereo partly shown): 84.4

Items follow; give inhibition at 1 µM for each.
1. O=C1CCC(N2Cc3cc(O[C@H]4CCCC[C@@H]4N4CC(C5CCN(S(=O)(=O)C6CCC6)CC5)C4)ccc3C2=O)C(=O)N1 (stereo partly shown)
2. CC12CC(C(=O)N3CCC(C4CN([C@H]5CCCC[C@@H]5Oc5ccc6c(c5)CN(C5CCC(=O)NC5=O)C6=O)C4)CC3)(C1)C2 (stereo partly shown)

Reply |
1: 85.4; 2: 82.5

====

Consider the following molecules; for each one, report its inhibition at 1 µM.
target or system: IKZF2 (Helios) (Homo sapiens, UniProt Q96SW2+Q9UKS7)
Construct: Leu-Asp junction (codons ctcgac before the linker); mScarlet (behind P2A) (C, cleaved yes); expressed in transfected cells
protocol: IKZF2 reporter degradation assay (HEK 293T IKZF2-mNeonGreen reporter cell line)
Assay type: cell-based
test context: HEK-293T, 24 h, @ 1 μM, HEK 293T IKZF2-mNeonGreen reporter, 24 hours incubation
Give bare numbers, in %.

# example entries with known answers
O=C1CCC(N2Cc3cc(O[C@H]4CCCC[C@@H]4N4CC(c5ncc(C6CC6)cn5)C4)ccc3C2=O)C(=O)N1 (single isomer, unassigned): 70.4
O=C1CCC(N2Cc3cc(O[C@H]4CCCC[C@@H]4N4CC(c5ccc6cccnc6c5)C4)ccc3C2=O)C(=O)N1 (some centres unmarked): 87.5
O=C1CCC(N2Cc3cc(OC4CCC[C@@H]4N4CC(c5ccncc5)C4)ccc3C2=O)C(=O)N1 (mixture of isomers): 40.6

Ask | Specify inhibition at 1 µM for O=C1CCC(N2Cc3cc(O[C@H]4CCCC[C@@H]4N4CC(c5ncc(C(F)(F)F)cn5)C4)ccc3C2=O)C(=O)N1 (single isomer, unassigned) [Compound 120-B] and stop.
Reply | 69.9

====

target or system: human E3 ligase component cereblon (CRBN) (Homo sapiens, UniProt Q96SW2)
protocol: Cereblon (CRBN) target engagement, NanoBRET TE Intracellular E3 Ligase Assay in transfected HEK-293T cells
test context: read-out: CRBN Binding EC50
measure name: pEC50
One number for each entry, as −log10 of the molar value.

CC12CC(C(=O)N3CCC(C4CN([C@H]5CCCC[C@@H]5Oc5ccc6c(c5)CN(C5CCC(=O)NC5=O)C6=O)C4)CC3)(C1)C2 (stereo partly shown): 8.52

Items follow; give pEC50 for each.
1. O=C1CCC(N2Cc3cc(OC4CCC[C@@H]4N4CC(c5cccnc5)C4)ccc3C2=O)C(=O)N1 (mixture of isomers) [Compound 208-B]
2. O=C1CCC(N2Cc3cc(O[C@H]4CCCC[C@@H]4N4CC(c5ccc6[nH]ncc6c5)C4)ccc3C2=O)C(=O)N1 (stereo partly shown)
3. O=C1CCC(N2Cc3cc(O[C@H]4CCCC[C@@H]4N4CC(n5ccnc5)C4)ccc3C2=O)C(=O)N1 (stereo partly shown)
4. O=C1CCC(N2Cc3cc(O[C@@H]4CCCC[C@H]4N4CC(c5ccc(C(F)(F)F)cn5)C4)ccc3C2=O)C(=O)N1 (single isomer, unassigned) [Compound 128-B]
5. O=C1CCC(N2Cc3cc(O[C@H]4CCCC[C@@H]4N4CC(C5CCN(C(=O)c6ccccc6)CC5)C4)ccc3C2=O)C(=O)N1 (stereo partly shown)
6. O=C1CCC(N2Cc3cc(OC4CCCC4N4CC(c5ccc(C(F)(F)F)cn5)C4)ccc3C2=O)C(=O)N1 (stereo not shown)

Reply |
[7.12, 7.43, 6.05, 7.96, 7.89, 7.66]
